- Test system: Saccharomyces cerevisiae
- test method notes: protein stability index of tFT-peptide fusion (C-terminal peptide) (PSI (0-1 scale)); higher = more stable (slower turnover);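 further: PSI is a weighted mean of sequencing reads over stability bins, variants kept only with over 10 reads, mCherry proximal and sfGFP distal, peptide attached via GGGS linker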
- run parameters: genetic background: wild type; temperature: 30 C
Kindly return true (1) if reported protein stability index is no lower than 0.7; return false (0) if it is lower.

Determine whether this sequence has protein stability index no lower than 0.7: `SRLQIRIRINEV`
false (0)

Try `AGVRGWGIAVTP` next.
false (0)

Try `VVARGGGGGSGA` next.
false (0)

Try `RGGPPPPPSITL` next.
true (1)

Try `CSRGVVLFLGFL` next.
false (0)

Try `MNQELRNCKGNG` next.
false (0)

Try `SFLSLYRLTPGR` next.
false (0)

Try `LERKRKYSPHDQ` next.
false (0)

Try `IWCSCWPGNWET` next.
true (1)

Try `DGFGVARGVSWG` next.
true (1)

Try `GIRFGLVCYPNF` next.
false (0)

Try `PPPPPHPPPHTR` next.
false (0)

Try `YDMFCSYRFYPI` next.
false (0)

Try `VMTRVIYRGVGR` next.
false (0)

Try `LFAIFLVVLLFR` next.
false (0)

Try `ASSHDNPEEVST` next.
false (0)

Try `GLSLLVDLNVWF` next.
false (0)

Try `LCLFSVRPARLL` next.
true (1)

Try `NLTAIIYTLVVD` next.
false (0)

Try `GGGGFLGVVGVG` next.
false (0)

Try `LEMTGGACGGGK` next.
false (0)

Try `LWPVSMTSSFFF` next.
false (0)

Try `PFSPLVPPLSFS` next.
true (1)

Try `GLVWGGCGTVGG` next.
true (1)

Try `PAPTRPSPPPLP` next.
false (0)

---

- System: Saccharomyces cerevisiae
- test method notes: protein stability index of tFT-peptide fusion (C-terminal peptide) (PSI (0-1 scale)); higher = more stable (slower turnover)
- run parameters: genetic background: wild type; temperature: 37 C
quantity name: protein stability index
No unit in the answer, please; the number alone is enough.

Field request: protein stability index | item: `CLTGWFGIFSAP`
0.737

Try `LSTPPLLPTPPS` next.
0.699

Try `LCFRLVSYLCIN` next.
0.37

Try `HLKKKLKIRLIN` next.
0.171

Try `FRVSAFFLPFLS` next.
0.486

Try `FILATGKGRWVV` next.
0.532

Try `FLAWSVGILCRV` next.
0.318

Try `LGFSHTRAIFFV` next.
0.396

Try `FPLGMFWVCFFV` next.
0.357

Try `VGRANLSVIRKV` next.
0.588

Try `LSVSLFPIRYVG` next.
0.453

Try `RSYAYIIVATVA` next.
0.214

Try `GCLFMQVSLFWR` next.
0.26

Try `VLGPRFCFVCHA` next.
0.459

Try `VFRLLLFFVFVF` next.
0.354

Try `AGLTLLWPLCLL` next.
0.353

Try `IHTFSVVVVVAA` next.
0.128

Try `GVQFRRPLIPIY` next.
0.517

Try `SCRCIIFVCCFW` next.
0.388
